Tested on: AKT1/2/3
Test: competitive isoTOP-ABPP, concentration-dependent HNE
Type: binding, human
Recorded Conditions: MDA-MB-231 proteome, read-out: IC50 for inhibition of cysteine (C311) in AKT1/2/3
Metric Name: IC50 (µM)
The reply should contain only the number, in µM.

# input Supply recorded IC50 for CCCCCC(O)/C=C/C=O (stereo not shown) [4-HNE, 4-Hydroxynonenal] here.
# output 60
